test system: A498 renal; experiment: NCI-60 one-dose screen, 48 h; settings: 10 µM
Compounds without any hit were thinned out: in the full panel of roughly 83,000, 20% have a hit. Activity calls are given as the source filed them. Rule for the calls: active = growth percent below 10; inactive = the rest.
Classes used: active, inactive

>  <COMPOUND>
O=C1N[C@@H]2[C@@H](O)[C@@H](O)[C@H](O)C[C@H]2c2cc3c(c(O)c21)OCO3

>  <EXPERIMENTAL_SYSTEM>
A498 renal

>  <DISCRETE_LABEL>
active

$$$$
>  <COMPOUND>
CCC1(C)CC(CCNCc2ccccc2O)(c2ccc(C)cc2)CCO1 (stereo not given)

>  <EXPERIMENTAL_SYSTEM>
A498 renal

>  <DISCRETE_LABEL>
inactive

$$$$
>  <COMPOUND>
COC[C@@H]1C[C@@]2(C)[C@@H](CC[C@@H]3[C@@H]2CC[C@@]2(C)[C@H]3CC[C@]2(C)O)CC1=O

>  <EXPERIMENTAL_SYSTEM>
A498 renal

>  <DISCRETE_LABEL>
inactive

$$$$
>  <COMPOUND>
O=C(c1cccc(O)c1O)c1cn(Cc2ccc(F)cc2)c2cccc(O)c12

>  <EXPERIMENTAL_SYSTEM>
A498 renal

>  <DISCRETE_LABEL>
inactive

$$$$
>  <COMPOUND>
COc1cc2c(=O)n(C3CCCCCCC3)c3c4cc[nH]c4ncc3c2cc1OC

>  <EXPERIMENTAL_SYSTEM>
A498 renal

>  <DISCRETE_LABEL>
active

$$$$

---

tested on: EKVX NSCLC; assay: NCI-60 one-dose screen, 48 h; conditions: 10 µM unless noted
This is part of a sample that, as a whole, favours compounds with a hit. Of some 83,000 tested, about 20% had one in any assay. Activity calls are given as the source filed them. The calls were made as follows: active = growth percent below 10; inactive = the rest.
Possible outcomes: true for active, false for inactive

>  <MOLECULE>
Cc1ccc(N2COOC3(OOC2)C2CC4CC(C2)CC3C4)cc1

>  <DISCRETE_LABEL>
false

$$$$
>  <MOLECULE>
CCn1c2ccccc2c2cc(C(=O)c3ccc(C)c4ccccc34)ccc21

>  <DISCRETE_LABEL>
false

$$$$
>  <MOLECULE>
Fc1ccc2c(c1)c(-c1nc(-c3c[nH]c4ncccc34)cs1)cn2CCCCN1CCCCC1

>  <DISCRETE_LABEL>
false

$$$$
>  <MOLECULE>
CC[C@H](C)[C@H](NC(=O)N[C@@H](C)c1ccccc1)C(=O)N(C)[C@H](C[C@@H](OC(C)=O)c1nc(C(=O)N[C@@H](Cc2ccccc2)C[C@H](C)C(=O)OC)cs1)C(C)C

>  <DISCRETE_LABEL>
false

$$$$
>  <MOLECULE>
NC(=O)CNc1ccc([As]=[As]c2ccc(NCC(N)=O)cc2)cc1 (stereo not given)

>  <DISCRETE_LABEL>
false

$$$$
>  <MOLECULE>
CC(=O)O[C@H]1CC[C@H]2[C@@H]3CC=C4c5nc(-c6ccccc6)sc5CC[C@]4(C)[C@H]3CC[C@]12C

>  <DISCRETE_LABEL>
false

$$$$
>  <MOLECULE>
COc1ccc(-n2c(C)nc3cc(OC)c(OC)cc3c2=O)cc1OC

>  <DISCRETE_LABEL>
false

$$$$
>  <MOLECULE>
C#Cc1ccc2c(c1)C(c1ccccc1)=NCC(=O)N2C

>  <DISCRETE_LABEL>
false

$$$$
>  <MOLECULE>
N#CC1(c2ccccc2)CCN(Cc2ccccc2)CC1

>  <DISCRETE_LABEL>
false

$$$$
>  <MOLECULE>
COC(=O)CCc1c[nH]c2ccc(N(CCCl)CCCl)cc12

>  <DISCRETE_LABEL>
false

$$$$
>  <MOLECULE>
COC(=O)[C@]12CCC(C)(C)C[C@H]1[C@H]1C(=O)C[C@@H]3[C@@]4(C)C[C@@]5(CC(C)(C)[C@@H]4CC[C@@]3(C)[C@]1(C)CC2)OO[C@@](C)(C(F)(F)F)O5

>  <DISCRETE_LABEL>
false

$$$$
>  <MOLECULE>
Nc1nnnc2nc[nH]c12

>  <DISCRETE_LABEL>
true

$$$$
>  <MOLECULE>
Clc1ccc(CSC(Cn2ccnc2)c2ccc(Cl)cc2Cl)cc1 (stereo not given)

>  <DISCRETE_LABEL>
false

$$$$
>  <MOLECULE>
Cn1cc(-c2csc(-c3cn(CCN4CCOCC4)c4ccc(F)cc34)n2)c2cccnc21

>  <DISCRETE_LABEL>
false

$$$$
>  <MOLECULE>
COC(=O)[C@@H](C)C[C@H](Cc1ccccc1)NC(=O)c1nc([C@@H](C[C@H](C(C)C)N(C)C(=O)[C@@H](NC(=O)[C@H]2CCCCN2C)C(C)C)OC(C)=O)sc1C(C)C

>  <DISCRETE_LABEL>
false

$$$$
>  <MOLECULE>
CCOC(=O)[C@@H](C)C[C@H](Cc1ccccc1)NC(=O)c1csc([C@@H](C[C@H](C(C)C)N(C)C(=O)CNC(=O)[C@H]2CCCCN2C)OC(C)=O)n1

>  <DISCRETE_LABEL>
false

$$$$
>  <MOLECULE>
COC(=O)[C@@H](C[C@H](Cc1ccccc1)NC(=O)c1csc([C@@H](C[C@H](C(C)C)N(C)C(=O)[C@@H](NC(=O)[C@H]2CCCCN2C)C(C)C)OC(C)=O)n1)NC(=O)OCc1ccccc1

>  <DISCRETE_LABEL>
false

$$$$
>  <MOLECULE>
CN1CCCCC1C(C)(O)c1ccccc1 (stereo not given)

>  <DISCRETE_LABEL>
false

$$$$
>  <MOLECULE>
Cc1cc(N(CCCl)CCCl)ccc1C=Nc1cccnc1

>  <DISCRETE_LABEL>
false

$$$$
>  <MOLECULE>
CC1=C(CCCNS(C)(=O)=O)C2=C(C)C3(CC3)[C@@](C)(O)C(=O)C2=C1

>  <DISCRETE_LABEL>
true

$$$$
>  <MOLECULE>
Nc1cc2nc3ccccc3nc2cc1N

>  <DISCRETE_LABEL>
false

$$$$
>  <MOLECULE>
Nc1nc([Se])c2ncn(C3OC(CO)C(O)C3O)c2n1 (stereo not given)

>  <DISCRETE_LABEL>
false

$$$$
>  <MOLECULE>
C[N+](C)(C)Cc1cc(Cl)ccc1O

>  <DISCRETE_LABEL>
false

$$$$
>  <MOLECULE>
Cn1cc(-c2csc(-c3cn(CCN4CCOCC4)c4ccccc34)n2)c2cccnc21

>  <DISCRETE_LABEL>
false

$$$$
>  <MOLECULE>
COC(=O)[C@@H](C)C[C@H](Cc1ccccc1)NC(=O)c1csc([C@@H](C[C@H](C(C)C)N(C)C(=O)[C@@H](NC(=O)[C@H]2CCCCN2C)C(C)C)OC(C)=O)n1

>  <DISCRETE_LABEL>
false

$$$$
>  <MOLECULE>
COc1cc2c(c(OC)c1OC)-c1ccc([O-])c(=O)cc1[C@@H](NC(C)=O)CC2.COc1cc2c(c(OC)c1OC)-c1ccc([O-])c(=O)cc1[C@@H](NC(C)=O)CC2.[Cu+2]

>  <DISCRETE_LABEL>
false

$$$$
>  <MOLECULE>
CC(=O)OC1CCC2(C)C(CCC3C2CC(=O)C2(C)C3CC(Sc3ccc(N(CCCl)CCCl)cc3)C2C(C)=O)C1 (stereo not given)

>  <DISCRETE_LABEL>
false

$$$$
>  <MOLECULE>
O=C1CNC(c2ccccc2)c2cc(Cl)ccc2N1 (stereo not given)

>  <DISCRETE_LABEL>
false

$$$$
>  <MOLECULE>
C/C(Cc1ccc(Cl)cc1)=C(\c1ccc(OCCN2CCOCC2)cc1)c1ccc(OC(=O)Cc2ccccc2)cc1

>  <DISCRETE_LABEL>
false

$$$$
>  <MOLECULE>
COC(=O)[C@H](C[C@H](Cc1ccccc1)NC(=O)c1csc([C@@H](C[C@H](C(C)C)N(C)C(=O)[C@@H](NC(=O)[C@H]2CCCCN2C)C(C)C)OC(C)=O)n1)NC(=O)OCc1ccccc1

>  <DISCRETE_LABEL>
false

$$$$
>  <MOLECULE>
COc1ccc2c(c1)c(-c1nc(-c3c[nH]c4ncccc34)cs1)cn2CCN1CCOCC1

>  <DISCRETE_LABEL>
false

$$$$
>  <MOLECULE>
CC(=O)[C@H]1CC[C@H]2[C@@H]3CC[C@H]4C[C@H](N)CC[C@]4(C)[C@H]3CC[C@]12C

>  <DISCRETE_LABEL>
false

$$$$
>  <MOLECULE>
COc1ccc(N(CC(=O)NCCC[Te]c2ccccc2)C(=O)CNC(=O)OC(C)(C)C)cc1

>  <DISCRETE_LABEL>
true

$$$$
>  <MOLECULE>
CCOP(=O)(NC[C@H]1O[C@](O)(CO)[C@@H](O)[C@@H]1O)OCC

>  <DISCRETE_LABEL>
false

$$$$
>  <MOLECULE>
CCN(CCO)C(Cc1ccccc1)c1ccccc1 (stereo not given)

>  <DISCRETE_LABEL>
false

$$$$
